Target: Influenza RNA polymerase (Influenza A/PR8/34 (H1N1) virus lysate) (Influenza A virus)
Sequence (P03431 whole entry, looked up): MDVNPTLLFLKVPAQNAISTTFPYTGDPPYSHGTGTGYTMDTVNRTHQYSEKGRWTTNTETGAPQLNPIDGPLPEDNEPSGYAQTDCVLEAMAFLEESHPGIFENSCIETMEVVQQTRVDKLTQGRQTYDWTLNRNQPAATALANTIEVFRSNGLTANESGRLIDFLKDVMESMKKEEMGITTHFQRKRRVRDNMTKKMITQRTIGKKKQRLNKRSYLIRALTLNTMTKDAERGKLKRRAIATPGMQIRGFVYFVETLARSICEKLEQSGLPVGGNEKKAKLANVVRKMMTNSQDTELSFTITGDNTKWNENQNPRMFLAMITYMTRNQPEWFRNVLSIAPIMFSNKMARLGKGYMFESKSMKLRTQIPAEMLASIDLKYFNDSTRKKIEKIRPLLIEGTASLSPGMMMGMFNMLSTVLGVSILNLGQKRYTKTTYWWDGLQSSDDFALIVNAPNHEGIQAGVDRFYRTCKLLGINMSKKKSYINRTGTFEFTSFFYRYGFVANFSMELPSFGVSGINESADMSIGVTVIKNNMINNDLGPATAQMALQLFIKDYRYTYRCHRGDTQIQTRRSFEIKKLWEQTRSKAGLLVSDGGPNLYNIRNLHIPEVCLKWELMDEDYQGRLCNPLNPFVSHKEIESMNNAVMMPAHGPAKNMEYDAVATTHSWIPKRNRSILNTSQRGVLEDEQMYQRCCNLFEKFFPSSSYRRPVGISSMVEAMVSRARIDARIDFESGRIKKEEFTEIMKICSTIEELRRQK
Assay: Influenza RNA polymerase inhibition (IC50) assay
Assay type: biochemical
Attribute measured: IC50

Incoming: Missing value: IC50, Influenza RNA polymerase (Influenza A/PR8/34 (H1N1) virus lysate) (Influenza A virus), entry C[C@@]1(c2ccc3c(N)ncnn23)O[C@H](COP(=O)(O)OP(=O)(O)OP(=O)(O)O)[C@@H](O)[C@H]1F [Compound 9] . Fill in?
Outgoing: 2100 to 2970 nM

Incoming: Entry to check: Nc1nc(F)nn2c([C@@H]3O[C@H](COP(=O)(O)OP(=O)(O)OP(=O)(O)O)[C@@H](O)[C@H]3F)ccc12 [Compound 21]
Outgoing: 970 to 1870 nM

Incoming: Entry to check: N#C[C@@]1(c2ccc3c(N)ncnn23)O[C@H](COP(=O)(O)OP(=O)(O)OP(=O)(O)O)[C@@H](O)[C@H]1F [Compound 10]
Outgoing: 48600 to 116000 nM

Incoming: Entry to check: Nc1ncnn2c([C@@H]3O[C@H](COP(=O)(O)OP(=O)(O)OP(=O)(O)O)[C@@H](O)[C@H]3F)ccc12 [Compound 11]
Outgoing: 950 to 1590 nM
